Every entry's value here was drawn from patent US20230357429A1.

Target: T1, Peptide-12 (cysteine pairing not given here; also: biotinylated (site not given here))
T1 peptide: PDFCAVYRWPICYQ
Experiment: ELISA, Fab on captured biotin-peptide
pEC50: −log10 of the molar value. Where no end group is shown, it is not given here.
Quick reference for pEC50 among some binders
value_kind: pEC50

- TBD-21 (HC F108A) (Fab, V domains shown, Fab; also called HC F108A mutant) VH: QVQLQQSGSELKKPGASVKVSCKASGYTFTNYGMNWVKQAPGQGLKWMGWINTYTGEPTYTDDFKGRFAFSLDTSVSTAYLQISSLKADDTAVYFCARGGFGSSYWYADVWGQGSLVTVSS VL: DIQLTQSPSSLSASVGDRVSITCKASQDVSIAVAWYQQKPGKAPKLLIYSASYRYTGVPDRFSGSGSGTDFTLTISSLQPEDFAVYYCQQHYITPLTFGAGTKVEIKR: 8.00
- TBD-1 wt (Fab, V domains shown, Fab; the heavy chain entry is VH-CH1; also called wild-type anti-TROP2 Fab (hRS7); TROP2 Fab) VH: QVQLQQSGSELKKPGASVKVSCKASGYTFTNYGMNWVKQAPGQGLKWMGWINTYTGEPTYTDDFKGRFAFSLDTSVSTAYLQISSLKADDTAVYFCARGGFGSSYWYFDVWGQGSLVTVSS VL: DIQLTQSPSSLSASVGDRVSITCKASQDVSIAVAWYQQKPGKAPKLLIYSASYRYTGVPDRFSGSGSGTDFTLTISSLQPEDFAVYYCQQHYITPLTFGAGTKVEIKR: 7.44
